Origin of the recorded values: paper PMC12416549

Known apparent Kd (screen) of a selection of binders
Target: T1, TNFR1 (Homo sapiens, UniProt P19438)
T1 chain: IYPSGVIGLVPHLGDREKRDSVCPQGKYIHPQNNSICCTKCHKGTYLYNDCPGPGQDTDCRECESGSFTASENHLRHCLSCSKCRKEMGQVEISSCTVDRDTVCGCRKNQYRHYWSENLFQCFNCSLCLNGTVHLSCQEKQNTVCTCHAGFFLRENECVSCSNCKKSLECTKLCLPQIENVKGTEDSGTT
Experiment: yeast display SC50
Lab book: enter the figure in nM, no units written.

INSERT INTO results (binder, measured_result) VALUES
  ('A94T (designed binder) MTLQELLREEALRRAEAEAFRYALELLAEKFPEQKEYLLDLAEEIESQIRSLSGVDVEDVRKFLDKEWAWVKELLAEHPAELAEVEAARAARLTELRAEVEAKVAA', 0.539);

# apparent Kd (screen) lookup, item E10W (designed binder) MTLQELLREWALRRAEAEAFRYALELLAEKFPEQKEYLLDLAEEIESQIRSLSGVDVEDVRKFLDKEWAWVKELLAEHPAELAEVEAARAARLAELRAEVEAKVAA
2.05
